Assay: Partition coefficient (logP)
Type: physicochemical
Settings: octanol/water; read-out: logP
Binary call on logP with cut-off 6: strictly below means rule met, and equality or higher means rule not met.

1) Cc1nccnc1C(=O)Nc1ccccc1C(=O)N[C@@H](Cc1ccccc1)[C@H](O)[C@H](O)[C@H](Cc1ccccc1)NC(=O)c1ccccc1NC(=O)c1nccnc1C    rule met
2) O=C(Nc1ncccc1C(=O)N[C@@H](Cc1ccccc1)[C@H](O)[C@H](O)[C@H](Cc1ccccc1)NC(=O)c1cccnc1NC(=O)OCc1ccccc1)OCc1ccccc1    rule not met

State whether 6 exceeds logP recorded for `O=C(Nc1c(O)cccc1C(=O)N[C@@H](Cc1ccccc1)[C@H](O)[C@H](O)[C@H](Cc1ccccc1)NC(=O)c1cccc(O)c1NC(=O)OCc1ccccc1)OCc1ccccc1` . rule not met

Note, next up: `O=C(Nc1ccccc1C(=O)N[C@@H](Cc1ccccc1)[C@H](O)[C@H](O)[C@H](Cc1ccccc1)NC(=O)c1ccccc1NC(=O)OCc1ccccn1)OCc1ccccn1` rule not met

Let us now turn to `O=C(Nc1ccccc1C(=O)N[C@@H](Cc1ccccc1)[C@H](O)[C@H](O)[C@H](Cc1ccccc1)NC(=O)c1ccccc1NC(=O)OCc1ccccc1)OCc1ccccc1` rule not met

Next compound up: `O=C(CO)Nc1ccccc1C(=O)N[C@@H](Cc1ccccc1)[C@H](O)[C@H](O)[C@H](Cc1ccccc1)NC(=O)c1ccccc1NC(=O)CO` rule met

----------
Experiment: Partition coefficient (logP)
Type: physicochemical
Conditions: octanol/water; read-out: logP
Lab note: anything with logP at or over 7 counts as label 1; the rest go in label 0.

1) CC(=O)Nc1ccccc1C(=O)N[C@@H](Cc1ccccc1)[C@H](O)[C@H](O)[C@H](Cc1ccccc1)NC(=O)c1ccccc1NC(C)=O    label 0

Does the molecule `O=C(Nc1ccccc1C(=O)N[C@@H](Cc1ccccc1)C[C@H](O)[C@H](Cc1ccccc1)NC(=O)c1ccccc1NC(=O)OCc1ccccn1)OCc1ccccn1` have recorded logP that is 7 or more? label 0

Same for `O=CNc1ccccc1C(=O)N[C@@H](Cc1ccccc1)[C@H](O)[C@H](O)[C@H](Cc1ccccc1)NC(=O)c1ccccc1NC=O` label 0

Similarly, `O=C(Nc1ccccc1C(=O)N[C@@H](Cc1ccccc1)C[C@H](O)[C@H](Cc1ccccc1)NC(=O)c1ccccc1NC(=O)OCc1ccccc1)OCc1ccccc1` ? label 1

Another: `O=C(Nc1ccccc1C(=O)N[C@@H](Cc1ccccc1)C[C@H](O)[C@H](Cc1ccccc1)NC(=O)c1ccccc1NC(=O)OCc1ccncc1)OCc1ccncc1` label 0

----------
Biological target: Human immunodeficiency virus type 1 protease (Human immunodeficiency virus 1)
Assay: Tested for inhibition of HIV protease using fluorogenic substrate
pKi: −log10 of the molar value.
Quick rule for you: pKi at 9 or higher means True, lower means False.

1. O=C(COCc1ccccc1)Nc1ccccc1C(=O)N[C@@H](Cc1ccccc1)[C@H](O)[C@H](O)[C@H](Cc1ccccc1)NC(=O)c1ccccc1NC(=O)COCc1ccccc1    False

Test whether the compound `O=C(CO)Nc1ccccc1C(=O)N[C@@H](Cc1ccccc1)[C@H](O)[C@H](O)[C@H](Cc1ccccc1)NC(=O)c1ccccc1NC(=O)CO` records pKi of 9 or higher. False

Then this compound: `Cc1nccnc1C(=O)Nc1ccccc1C(=O)N[C@@H](Cc1ccccc1)[C@H](O)[C@H](O)[C@H](Cc1ccccc1)NC(=O)c1ccccc1NC(=O)c1nccnc1C` False

Likewise for `O=C(Nc1ccccc1C(=O)N[C@@H](Cc1ccccc1)C[C@H](O)[C@H](Cc1ccccc1)NC(=O)c1ccccc1NC(=O)OCc1ccncc1)OCc1ccncc1` ? True

Follow-up entry: `O=C(Nc1ccccc1C(=O)N[C@@H](Cc1ccccc1)C[C@H](O)[C@H](Cc1ccccc1)NC(=O)c1ccccc1NC(=O)OCc1ccccn1)OCc1ccccn1` True

Ok, now `O=C(Nc1ccccc1C(=O)N[C@@H](Cc1ccccc1)C[C@H](O)[C@H](Cc1ccccc1)NC(=O)c1ccccc1NC(=O)OCc1cccnc1)OCc1cccnc1` True
